Test system: NCI-H2228
procedure-summary: relative viability (nuclei count vs DMSO), 5 days (fraction); higher = more cells survive
condition-info: first compound 0.8 µM
Catalogue of relative viability readings, one per entry.
Number only, please.

Study these solved cases before continuing.
CCCCCCCCCCCC1=C(O)C(=O)C=C(O)C1=O [Embelin] + COc1cc2c(Oc3ccc(NC(=O)C4(C(=O)Nc5ccc(F)cc5)CC4)cc3F)ccnc2cc1OCCCN1CCOCC1 [Foretinib] (partner 0.25 µM) : 0.868
CCCCCCCCCCCC1=C(O)C(=O)C=C(O)C1=O [Embelin] + CS(=O)(=O)N1CCN(Cc2cc3nc(-c4cccc5[nH]ncc45)nc(N4CCOCC4)c3s2)CC1 [Pictilisib] (partner 1 µM) : 0.375
CCCCCCCCCCCC1=C(O)C(=O)C=C(O)C1=O [Embelin] + Cc1nc(Nc2ncc(C(=O)Nc3c(C)cccc3Cl)s2)cc(N2CCN(CCO)CC2)n1 [Dasatinib] (partner 0.075 µM) : 0.618

Consider the record given below.
# assay system NCI-H2228: give relative viability of CCCCCCCCCCCC1=C(O)C(=O)C=C(O)C1=O [Embelin] + COc1cccc2cc(-c3nc([C@H]4CC[C@H](C(=O)O)CC4)n4ncnc(N)c34)[nH]c12 [OSI-027] (partner 0.5 µM)
0.673
